# targetUnderTest: human H3 receptor (Homo sapiens)
# Construct: expressed in transfected cells
# Sequence (Q9Y5N1 whole entry): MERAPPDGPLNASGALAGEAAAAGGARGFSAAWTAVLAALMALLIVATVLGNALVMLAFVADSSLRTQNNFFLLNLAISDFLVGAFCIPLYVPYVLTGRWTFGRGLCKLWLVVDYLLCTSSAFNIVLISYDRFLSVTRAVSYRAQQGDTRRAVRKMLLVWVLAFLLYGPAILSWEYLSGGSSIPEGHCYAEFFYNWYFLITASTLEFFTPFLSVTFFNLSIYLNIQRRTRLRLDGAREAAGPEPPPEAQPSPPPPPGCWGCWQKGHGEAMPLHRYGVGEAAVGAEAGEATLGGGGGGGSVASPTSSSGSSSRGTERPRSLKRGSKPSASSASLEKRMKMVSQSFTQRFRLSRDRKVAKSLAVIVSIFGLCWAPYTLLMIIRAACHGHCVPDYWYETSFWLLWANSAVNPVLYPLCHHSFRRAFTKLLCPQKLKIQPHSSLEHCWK
# protocol: Cyclic AMP accumulation (β-galactosidase reporter in SK-N-MC cells)
# Type: cell-based
# recordedConditions: read-out: pA2 (converted)
propertyLabel: Kb (nM)

- compound: "CC(C)N1CCN(C(=O)c2ccc(C(CCN(C)C)Oc3ccc(Cl)c(Cl)c3)cc2)CC1 (centres unmarked)"
  assayResult: 2.19
- compound: "CN(C)CCC(Cc1ccccc1)c1ccc(OCCCN2CCCCC2)cc1 (centres unmarked)"
  assayResult: 0.251
- compound: "CN(C)CCC(Oc1ccc(C(F)(F)F)cc1)c1ccc(C(=O)N2CCN(C3CCCC3)CC2)cc1 (centres unmarked)"
  assayResult: 1.48
- compound: "CC(C)N1CCC(Oc2ccc(C(CCN(C)C)Oc3ccccc3)cc2)CC1 (centres unmarked)"
  assayResult: 6.92
- compound: "CN(C)CCC(Oc1ccc(OCCCN2CCCCC2)cc1)c1ccccc1 (centres unmarked)"
  assayResult: 0.759
- compound: "CN(C)CCC(Oc1ccc(C#CCCN2CCCCC2)cc1)c1ccccc1 (centres unmarked)"
  assayResult: 2.19
- compound: "CCC(CC)N1CCN(C(=O)c2ccc(C(CCN(C)C)Oc3ccc(C(F)(F)F)cc3)cc2)CC1 (centres unmarked)"
  assayResult: 2.45
- compound: "CC(C)N1CCN(C(=O)c2ccc(C(CCN(C)C)Oc3ccccc3)cc2)CC1 (centres unmarked)"
  assayResult: 0.214

This collection of values is drawn from patent US20080139564A1.
